Molecular target: FAAH (Homo sapiens (Human), UniProt O00519)
Sequence (O00519 whole entry): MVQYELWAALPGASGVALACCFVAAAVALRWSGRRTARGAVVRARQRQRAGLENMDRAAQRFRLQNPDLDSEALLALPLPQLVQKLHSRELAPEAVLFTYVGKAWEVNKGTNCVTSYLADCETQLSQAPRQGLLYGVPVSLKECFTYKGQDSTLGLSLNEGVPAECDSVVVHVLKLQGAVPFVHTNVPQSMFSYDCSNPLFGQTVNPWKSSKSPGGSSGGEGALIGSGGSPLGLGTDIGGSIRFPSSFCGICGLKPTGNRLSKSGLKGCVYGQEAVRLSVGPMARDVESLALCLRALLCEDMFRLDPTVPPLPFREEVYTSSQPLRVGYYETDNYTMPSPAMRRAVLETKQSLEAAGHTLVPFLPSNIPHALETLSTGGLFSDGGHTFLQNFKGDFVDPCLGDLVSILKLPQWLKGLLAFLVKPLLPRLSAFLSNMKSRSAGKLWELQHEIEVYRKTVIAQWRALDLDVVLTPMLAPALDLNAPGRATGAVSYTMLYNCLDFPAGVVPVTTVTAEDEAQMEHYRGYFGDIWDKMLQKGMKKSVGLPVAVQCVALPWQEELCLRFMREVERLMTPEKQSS
Assay: Assay Method 1: FAAH assay, T84 cell homogenate, 3H-anandamide hydrolysis
Type: biochemical
Conditions: 3H-AEA tracer 200 nM, 1 h at rt
measurement_name: pIC50
By convention, pIC50 is the negative base-10 log of a molar concentration.

Record summary for O=C(Nc1ccccc1)N1CCN(Cc2ccc3c(c2)CCC3)CC1 : reported pIC50 = 6.74

Record summary for CCCOc1cccc(CN2CCN(C(=O)Nc3ccccc3)CC2)c1 : reported pIC50 = 6.77

Record summary for O=C(Nc1ccccc1)N1CCN(Cc2cccc(OS(=O)(=O)c3ccc(Cl)cc3)c2)CC1 : reported pIC50 = 6.42

Record summary for CCOc1ccc(CN2CCN(C(=O)Nc3ccccc3)CC2)cc1 : reported pIC50 = 5.70

Record summary for O=C(Nc1ccccc1)N1CCN(Cc2cccc(S(=O)(=O)c3ccc(Cl)cc3)c2)CC1 : reported pIC50 = 6.96

Record summary for O=C(Nc1ccccc1)N1CCN(Cc2ccc(Br)cc2)CC1 : reported pIC50 = 7.16

Record summary for CS(=O)(=O)Oc1cccc(CN2CCN(C(=O)Nc3ccccc3)CC2)c1 : reported pIC50 = 6.00

Record summary for O=C(Nc1ccc(F)cc1F)N1CCN(Cc2cnc3ccccc3c2)CC1 : reported pIC50 = 6.60

Record summary for O=C(Nc1ccccc1)N1CCN(Cc2cccc(Oc3ccc4ccccc4c3)c2)CC1 : reported pIC50 = 7.48

Record summary for CS(=O)(=O)c1ccc(Oc2cccc(CN3CCN(C(=O)Nc4ccccc4)CC3)c2)cc1 : reported pIC50 = 7.19

Record summary for O=C(Nc1ccccc1)N1CCN(Cc2ccc3cccc(Cl)c3n2)CC1 : reported pIC50 = 7.55

Record summary for C=Cc1cccc(CN2CCN(C(=O)Nc3ccccc3)CC2)c1 : reported pIC50 = 6.23

Record summary for COc1cccc(NC(=O)N2CCN(Cc3ccc(Br)c(Br)c3)CC2)c1 : reported pIC50 = 7.32

Record summary for O=C(Nc1cccc(F)c1)N1CCN(Cc2cnc3ccccc3c2)CC1 : reported pIC50 = 6.92

Record summary for CC(C)Oc1ccc(CN2CCN(C(=O)Nc3ccccc3)CC2)cc1 : reported pIC50 = 5.46

Record summary for O=C(Nc1ccccc1)N1CCN(Cc2ccc(Br)c(Br)c2)CC1 : reported pIC50 = 7.51

---

Target: FAAH (Homo sapiens (Human), UniProt O00519)
Assay: Assay Method 1: FAAH assay, T84 cell homogenate, 3H-anandamide hydrolysis
Type: biochemical
Conditions: 3H-AEA tracer 200 nM, 1 h at rt
measurement_name: log10(IC50) (log10 of the value in µM)
Note: values are log10 of IC50 expressed in µM.

Record summary for COc1ccc(CN2CCN(C(=O)Nc3ccccc3)CC2)cc1OC : reported log10(IC50) = 0.60

Record summary for O=C(Nc1ccccc1)N1CCN(Cc2ccc(/C=C/c3ccccc3)cc2)CC1 : reported log10(IC50) = 0.78

Record summary for O=C(Nc1ccccc1)N1CCN(Cc2ccc3c(c2)CCO3)CC1 : reported log10(IC50) = -0.21

Record summary for COc1ccc(NC(=O)N2CCN(Cc3ccc(Br)c(Br)c3)CC2)cc1 : reported log10(IC50) = -1.12

Record summary for O=C(Nc1ccccc1)N1CCN(Cc2ccc3ccc4cccc5ccc2c3c45)CC1 : reported log10(IC50) = -1.02

Record summary for Cc1ccc(CN2CCN(C(=O)Nc3ccccc3)CC2)cc1C [Example D, reference compound] : reported log10(IC50) = -0.20

Record summary for CCCOc1ccc(CN2CCN(C(=O)Nc3ccccc3)CC2)cc1 : reported log10(IC50) = 0.18

Record summary for Cc1ccc(NC(=O)N2CCC(Cc3ccccc3)CC2)cc1 : reported log10(IC50) = 0.90

Record summary for O=C(Nc1ccccn1)N1CCN(Cc2ccc(Br)c(Br)c2)CC1 : reported log10(IC50) = -0.44

Record summary for O=C(Nc1ccccc1)N1CCN(Cc2ccc3c(c2)OCO3)CC1 [Example B, reference compound] : reported log10(IC50) = -0.46

Record summary for O=C(Nc1ccccc1)N1CCN(Cc2ccc3[nH]ccc3c2)CC1 : reported log10(IC50) = 0.60
